# Tested on: HCC 2998
# ASSAY DETAILS: NCI tumour cell line growth inhibition, 48 h
Activity calls are given as the source filed them. Cut-off read from the data, not from the text of the source: active = GI50 up to about 1.1 µM and inactive = higher. Starred links: 1 amine or outer side, 2 acyl side, 3 side chain; linkers in the order of their positions; H or OH if unused. Positions of bridges follow the written chain, without caps; N, C: chain ends. Non-standard residues stand in square brackets, D forms with d. Residues, ends and D or L forms follow the SMILES beside them. Chains are numbered I, II in the order given. Actinocin(1to9) = Cc1c2oc3c(C)ccc(C(=O)[*:2])c3nc-2c(C(=O)[*:1])c(N)c1=O; NMeV = CN[CH](C(=O)O)C(C)C; Sar = CNCC(=O)O
Listing of entries alongside the reported GI50.
METRIC NAME: GI50

[
  {
    "COMPOUND": "O=C(OCCN=c1c2ccccc2ccc2ccccc12)c1ccccc1",
    "EXPERIMENTAL TARGET": "HCC 2998",
    "REPORTED RESULT": "72.8 µM (inactive)"
  },
  {
    "COMPOUND": "C=C1CCC2[C@@H](CCC3[C@]2(C)CCC[C@]3(C)C(=O)OC)[C@@H]1CC=O (some centres not stated)",
    "EXPERIMENTAL TARGET": "HCC 2998",
    "REPORTED RESULT": "61.7 µM (inactive)"
  },
  {
    "COMPOUND": "Nc1ccn(CCCC(c2ccccc2)P(=O)(O)O)c(=O)n1 (configuration not stated)",
    "EXPERIMENTAL TARGET": "HCC 2998",
    "REPORTED RESULT": "> 100 µM (inactive)"
  },
  {
    "COMPOUND": "CC(C)Oc1ccc(CNC2=NCCO2)c2ccccc12",
    "EXPERIMENTAL TARGET": "HCC 2998",
    "REPORTED RESULT": "10.9 µM (inactive)"
  },
  {
    "COMPOUND": "CCC(C)C1NC(=O)C(NC(=O)c2c3nc4c(C(=O)NC5C(=O)NC(C(C)CC)C(=O)N6CCCC6C(=O)N(C)CC(=O)N(C)C(C(C)C)C(=O)OC5C)ccc(C)c4oc-3c(C)c(=O)c2N)C(C)OC(=O)C(C(C)C)N(C)C(=O)CN(C)C(=O)C2CCCN2C1=O (configuration not stated) (I: TIP[Sar][NMeV] / II: TIP[Sar][NMeV]; ester I:1-I:C, II:1-II:C; linker I:N-II:N via Actinocin(1to9); configuration not given here)",
    "EXPERIMENTAL TARGET": "HCC 2998",
    "REPORTED RESULT": "0.013 µM (active)"
  },
  {
    "COMPOUND": "Cc1nc2c(O)cc3c4c(=O)n(C)c(=O)n(C)c4n(Cc4ccccc4)c3c2nc1C",
    "EXPERIMENTAL TARGET": "HCC 2998",
    "REPORTED RESULT": "22.7 µM (inactive)"
  },
  {
    "COMPOUND": "O=C(Nc1ccccc1)c1cccc([N+](=O)[O-])c1",
    "EXPERIMENTAL TARGET": "HCC 2998",
    "REPORTED RESULT": "> 100 µM (inactive)"
  }
]
